PDE4D2 (Homo sapiens, UniProt Q08499): recorded pIC50 for assorted compounds
Sequence (Q08499 388-715): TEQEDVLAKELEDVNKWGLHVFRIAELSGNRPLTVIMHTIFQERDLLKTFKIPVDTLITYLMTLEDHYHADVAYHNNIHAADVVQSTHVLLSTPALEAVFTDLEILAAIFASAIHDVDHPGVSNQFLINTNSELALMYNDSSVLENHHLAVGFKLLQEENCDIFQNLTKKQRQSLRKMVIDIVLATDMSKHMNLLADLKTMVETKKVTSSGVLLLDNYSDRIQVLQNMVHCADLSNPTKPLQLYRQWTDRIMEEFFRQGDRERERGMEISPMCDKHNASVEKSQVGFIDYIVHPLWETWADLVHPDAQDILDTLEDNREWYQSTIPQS
For clarity, pIC50 is expressed as the negative log10 of concentration in mol/L.

Please review the following examples before continuing.
CC(C)C12CCC3(CC(c4ccccc4)c4c(O)c(C=O)c(O)c(C=O)c4O3)C1C2 (stereo not drawn) [Compound 26, guadial A] | 5.57
CC(C)C1CCC(C)C2CCC3(C=C12)CC(c1ccccc1)c1c(O)c(C=O)c(O)c(C=O)c1O3 (stereo not drawn) [Compound 8, Psiguajadial H] | 5.74
CC(C)C1CCC(C)C23CC4C(c5ccccc5)c5c(O)c(C=O)c(O)c(C=O)c5OC4(C)C2C13 (stereo not drawn) [Compound 2, Psiguajadial B] | 5.30
CC1=CCCC2(C)C(c3ccccc3)c3c(O)c(C=O)c(O)c(C=O)c3OC2C2C(CC1)C2(C)C (stereo not drawn) [Compound 5, Psiguajadial E] | 5.49
CC(C)C12CCC3(CC(c4ccccc4)c4c(O)c(C=O)c(O)c(C=O)c4O3)C1C2 (stereo not drawn) [Compound 11, Psiguajadial K] | 5.43
CC(C)C1CCC(C)C2CC3C(c4ccccc4)c4c(O)c(C=O)c(O)c(C=O)c4OC3(C)C=C12 (stereo not drawn) [Compound 24, Guajadial F] | 5.57

Switching to the query record.
Input CC(C)C12CC3C(c4ccccc4)c4c(O)c(C=O)c(O)c(C=O)c4OC3(C)C1C2 (stereo not drawn) [Compound 25, guajavadial A] . Output pIC50: 5.70

* * *

PDE4D2 (Homo sapiens, UniProt Q08499): recorded pIC50 for assorted compounds
For clarity, pIC50 is expressed as the negative log10 of concentration in mol/L.

Please review the following examples before continuing.
CC1(C)CC2C1CCC13CC2(C)CCC1C(c1ccccc1)c1c(O)c(C=O)c(O)c(C=O)c1O3 (stereo not shown) [Compound 6, Psiguajadial F] | 5.58
C=C1CCC2C(c3ccccc3)c3c(O)c(C=O)c(O)c(C=O)c3OC2(C)CCC2C1CC2(C)C (stereo not shown) [Compound 19, guajadial] | 5.79

Bench note, PDE4D2 (Homo sapiens, UniProt Q08499): entry CC(C)C1CCC(C)C23CCC4(CC(c5ccccc5)c5c(O)c(C=O)c(O)c(C=O)c5O4)C2C13 (stereo not shown) [Compound 1, Psiguajadial A] , its pIC50 = 5.51

Bench note, PDE4D2 (Homo sapiens, UniProt Q08499): entry CC1(C)C2CCC3(CC(c4ccccc4)c4c(O)c(C=O)c(O)c(C=O)c4O3)C1C2 (stereo not shown) [Compound 28, guadial C] , its pIC50 = 4.77
